This listing pairs variants with measured protein stability index.
B1: TRIM15 (parent)
chain: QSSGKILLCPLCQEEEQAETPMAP

# Variants of: B1
# assay: protein stability index of a GFP-peptide fusion (GPS, HEK-293T) (PSI 1-6); higher = more stable;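 note: lentivirally expressed fusions sorted by FACS into six bins by GFP to DsRed ratio, PSI derived from sequencing read proportions per bin multiplied by bin number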
# reportedConditions: c terminus: a fixed tail appended

Use these answered entries as a reference point.
* L8H | 3.96
* T20E | 3.92

For the next question, use this variant.
Which protein stability index value is on record for P21C ?
3.94
